Ki, 5-HT2A (Homo sapiens): measured values
recordedEndpoint: Ki (nM)

>>> print(df.to_string())
                                 smilestext  recordedendpoint  unitlabel  numericreadout
0  O=C1CN2c3c(cccc3[C@@H]3CN(CCCc4n[nH]c5cc(F)ccc45)CC[C@@H]32)N1                Ki         nM             2.6
1  O=C1CN2c3c(cccc3[C@@H]3CN(CCCc4noc5cc(F)ccc45)CC[C@@H]32)N1                Ki         nM             3.1

====

Ki, D1 (Homo sapiens, UniProt P21728): measured values
recordedEndpoint: Ki (nM)

>>> print(df.to_string())
                                   molecule                        studysystem  unitlabel  numericreadout
0  O=C1CN2c3c(cccc3[C@@H]3CN(CCCc4n[nH]c5cc(F)ccc45)CC[C@@H]32)N1 [Example 2]  D1 (Homo sapiens, UniProt P21728)         nM             5.2
1  O=C1CN2c3c(cccc3[C@@H]3CN(CCCc4noc5cc(F)ccc45)CC[C@@H]32)N1 [Example 3]  D1 (Homo sapiens, UniProt P21728)         nM              13

Taken from patent US20240415832A1.
